Reference source for all entries: patent US5919653A

- Test system: human GlyT-2 glycine transporter (clone pHGT2, SEQ ID 20 nucleic acid / SEQ ID 21 protein) (Homo sapiens, UniProt Q9Y345, I279N/I611V)
- Sequence (Q9Y345 whole entry I279N/I611V): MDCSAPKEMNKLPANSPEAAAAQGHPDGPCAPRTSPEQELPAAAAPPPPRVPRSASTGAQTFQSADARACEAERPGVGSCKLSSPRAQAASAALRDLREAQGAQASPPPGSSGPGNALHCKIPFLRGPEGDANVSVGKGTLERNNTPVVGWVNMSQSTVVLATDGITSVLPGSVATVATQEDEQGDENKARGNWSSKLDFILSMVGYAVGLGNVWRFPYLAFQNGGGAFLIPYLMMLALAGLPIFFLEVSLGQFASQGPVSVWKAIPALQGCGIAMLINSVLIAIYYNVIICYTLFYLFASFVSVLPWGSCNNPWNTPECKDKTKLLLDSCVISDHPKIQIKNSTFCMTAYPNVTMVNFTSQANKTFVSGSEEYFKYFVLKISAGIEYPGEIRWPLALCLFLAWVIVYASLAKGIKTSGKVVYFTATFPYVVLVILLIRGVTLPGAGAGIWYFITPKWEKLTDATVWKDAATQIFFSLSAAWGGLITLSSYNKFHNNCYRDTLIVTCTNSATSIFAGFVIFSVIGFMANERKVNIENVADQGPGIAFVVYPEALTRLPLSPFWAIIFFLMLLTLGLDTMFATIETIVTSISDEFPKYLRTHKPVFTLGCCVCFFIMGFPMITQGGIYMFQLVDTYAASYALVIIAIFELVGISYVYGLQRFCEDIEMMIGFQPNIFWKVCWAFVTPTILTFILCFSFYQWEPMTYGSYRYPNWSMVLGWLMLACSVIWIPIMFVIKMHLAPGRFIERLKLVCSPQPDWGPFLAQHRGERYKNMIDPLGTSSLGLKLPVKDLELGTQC
- Assay comment: cell-based
Readout label: IC50

In: Which IC50 is listed for NCC(=O)O [glycine] ?
Out: 40 µM
